Recorded values, source PubChem BioAssay AID1963958.

Each entry below lists one item and its recorded viability, T/C value.
System: MDA-MB-231 multicell spheroids, viability
Assay: Anticancer human tumor MDA-MB-231 cell line growth inhibition [PI3K];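 also: spheroids exposed to agents for seven days before reading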;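 as to viability, T/C: percent of vehicle control luminescence with DMSO treated spheroids as 100%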
Conditions: second compound 1 µM; first compound 0.1 µM; stronger effect = lower value
Text: Combinatorial screen of targeted agents with the PI3K inhibitors inavolisib, alpelisib, duvelisib, and copanlisib in multi-cell type tumor spheroids A high-throughput screen of multi-cell type tumor spheroids was designed to identify active combinations of targeted small molecules and PI3K pathway inhibitors. […] Compounds. […] If the clinical Cmax for an agent had not been determined, the highest concentration tested was 10 microM. […]
Reply with just the number (in %).

Here's what some known entries look like.
| MOLECULE | viability, T/C, % |
| --- | --- |
| C#Cc1c(F)ccc2cc(O)cc(-c3ncc4c(N5CC6CCC(C5)N6)nc(OCC56CCCN5CC(F)C6)nc4c3F)c12 (stereo unspecified) + CC(Nc1ncnc2nc[nH]c12)c1cc2cccc(Cl)c2c(=O)n1-c1ccccc1 | 83.2 |
| CCN1CCN(Cc2ccc(Nc3ncc(F)c(-c4cc(F)c5nc(C)n(C(C)C)c5c4)n3)nc2)CC1 + COc1c(OCCCN2CCOCC2)ccc2c3n(c(=NC(=O)c4cnc(N)nc4)nc12)CCN3 | 25.5 |

Hello, I am looking for reported viability, T/C with MDA-MB-231 multicell spheroids, viability for CC(=O)c1c(C)c2cnc(Nc3ccc(N4CCNCC4)cn3)nc2n(C2CCCC2)c1=O + CC(Nc1ccc2c(c1)OCCn1cc(N3C(=O)OCC3C(F)F)nc1-2)C(N)=O . Could you help?
23.4

Hello, I am looking for reported viability, T/C with MDA-MB-231 multicell spheroids, viability for C#Cc1c(F)ccc2cc(O)cc(-c3ncc4c(N5CC6CCC(C5)N6)nc(OCC56CCCN5CC(F)C6)nc4c3F)c12 (stereo unspecified) + COc1c(OCCCN2CCOCC2)ccc2c3n(c(=NC(=O)c4cnc(N)nc4)nc12)CCN3 . Could you help?
23.1

Hello, I am looking for reported viability, T/C with MDA-MB-231 multicell spheroids, viability for CC(=O)c1c(C)c2cnc(Nc3ccc(N4CCNCC4)cn3)nc2n(C2CCCC2)c1=O + COc1c(OCCCN2CCOCC2)ccc2c3n(c(=NC(=O)c4cnc(N)nc4)nc12)CCN3 . Could you help?
19.6

Hello, I am looking for reported viability, T/C with MDA-MB-231 multicell spheroids, viability for Cn1nccc1Nc1nccc(-c2ccn(C(CO)c3ccc(Cl)c(F)c3)c(=O)c2)n1 (stereo unspecified) + CC(Nc1ccc2c(c1)OCCn1cc(N3C(=O)OCC3C(F)F)nc1-2)C(N)=O . Could you help?
42.3

Hello, I am looking for reported viability, T/C with MDA-MB-231 multicell spheroids, viability for C[C@@H](NC(=O)c1ncnc(N)c1Cl)c1ncc(C(=O)Nc2cc(C(F)(F)F)c(Cl)cn2)s1 + Cc1nc(NC(=O)N2CCCC2C(N)=O)sc1-c1ccnc(C(C)(C)C(F)(F)F)c1 . Could you help?
61

Hello, I am looking for reported viability, T/C with MDA-MB-231 multicell spheroids, viability for CCN1CCN(Cc2ccc(Nc3ncc(F)c(-c4cc(F)c5nc(C)n(C(C)C)c5c4)n3)nc2)CC1 + CC(Nc1ncnc2nc[nH]c12)c1cc2cccc(Cl)c2c(=O)n1-c1ccccc1 . Could you help?
47.8

Hello, I am looking for reported viability, T/C with MDA-MB-231 multicell spheroids, viability for CC(C)NCC(C(=O)N1CCN(c2ncnc3c2C(C)CC3O)CC1)c1ccc(Cl)cc1 (stereo unspecified) + COc1c(OCCCN2CCOCC2)ccc2c3n(c(=NC(=O)c4cnc(N)nc4)nc12)CCN3 . Could you help?
23.7

Hello, I am looking for reported viability, T/C with MDA-MB-231 multicell spheroids, viability for Cn1ncnc1[C@H]1c2n[nH]c(=O)c3cc(F)cc(c23)N[C@@H]1c1ccc(F)cc1 + Cc1nc(NC(=O)N2CCCC2C(N)=O)sc1-c1ccnc(C(C)(C)C(F)(F)F)c1 . Could you help?
49.7

Hello, I am looking for reported viability, T/C with MDA-MB-231 multicell spheroids, viability for CC(C)n1nc(-c2ccc3oc(N)nc3c2)c2c(N)ncnc21 + CC(Nc1ccc2c(c1)OCCn1cc(N3C(=O)OCC3C(F)F)nc1-2)C(N)=O . Could you help?
17.3

----------
Test system: MDA-MB-231 multicell spheroids, viability
Test: Anticancer human tumor MDA-MB-231 cell line growth inhibition [PI3K];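 also: spheroids exposed to agents for seven days before reading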
Settings: curve of compound
OBSERVATION TYPE: IC50

Hello, I am looking for reported IC50 with MDA-MB-231 multicell spheroids, viability for C#Cc1c(F)ccc2cc(O)cc(-c3ncc4c(N5CC6CCC(C5)N6)nc(OCC56CCCN5CC(F)C6)nc4c3F)c12 (stereo unspecified) . Could you help?
> 10 µM

Hello, I am looking for reported IC50 with MDA-MB-231 multicell spheroids, viability for Cn1ncc(Cl)c1-c1cc(C(=O)NC(CN)Cc2cccc(F)c2)sc1Cl (stereo unspecified) . Could you help?
3.47 µM [middle of 4 runs]

Hello, I am looking for reported IC50 with MDA-MB-231 multicell spheroids, viability for CC(Cn1ccc(-c2ccc(C#N)c(Cl)c2)n1)NC(=O)c1cc(C(C)O)[nH]n1 (stereo unspecified) . Could you help?
> 10 µM

----------
System: MDA-MB-231 multicell spheroids, viability
Test: Anticancer human tumor MDA-MB-231 cell line growth inhibition [PI3K];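 also: spheroids exposed to agents for seven days before reading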;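 as to viability, T/C: percent of vehicle control luminescence with DMSO treated spheroids as 100%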
Settings: second compound 0.1 µM; first compound 3.16 µM; stronger effect = lower value
Binary call on viability, T/C with cut-off 80%: strictly below means true (1), and equality or higher means false (0).

| COMPOUND | CLASS NAME |
| --- | --- |
| CC1(C)CCC(CN2CCN(c3ccc(C(=O)NS(=O)(=O)c4ccc(NCC5CCOCC5)c([N+](=O)[O-])c4)c(Oc4cnc5[nH]ccc5c4)c3)CC2)=C(c2ccc(Cl)cc2)C1 + Cc1nc(NC(=O)N2CCCC2C(N)=O)sc1-c1ccnc(C(C)(C)C(F)(F)F)c1 | false (0) |
| Cn1ncc(Cl)c1-c1cc(C(=O)NC(CN)Cc2cccc(F)c2)sc1Cl (stereo unspecified) + CC(Nc1ccc2c(c1)OCCn1cc(N3C(=O)OCC3C(F)F)nc1-2)C(N)=O | true (1) |
| CNC(=O)c1ccc(N2C(=S)N(c3ccc(C#N)c(C(F)(F)F)c3)C(=O)C2(C)C)cc1F + Cc1nc(NC(=O)N2CCCC2C(N)=O)sc1-c1ccnc(C(C)(C)C(F)(F)F)c1 | true (1) |
| C=CC(=O)N1CCN(c2nc(=O)n(-c3c(C)ccnc3C(C)C)c3nc(-c4c(O)cccc4F)c(F)cc23)C(C)C1 (stereo unspecified) + CC(Nc1ccc2c(c1)OCCn1cc(N3C(=O)OCC3C(F)F)nc1-2)C(N)=O | true (1) |
| C=CC(=O)N1CCN(c2nc(=O)n(-c3c(C)ccnc3C(C)C)c3nc(-c4c(O)cccc4F)c(F)cc23)C(C)C1 (stereo unspecified) + COc1c(OCCCN2CCOCC2)ccc2c3n(c(=NC(=O)c4cnc(N)nc4)nc12)CCN3 | true (1) |

Query compound follows.
Strictly below 80% in viability, T/C? CC(C)NCC(C(=O)N1CCN(c2ncnc3c2C(C)CC3O)CC1)c1ccc(Cl)cc1 (stereo unspecified) + CC(Nc1ncnc2nc[nH]c12)c1cc2cccc(Cl)c2c(=O)n1-c1ccccc1
true (1)

----------
Each entry below lists one item and its recorded viability, T/C value.
System: MDA-MB-231 multicell spheroids, viability
Test: Anticancer human tumor MDA-MB-231 cell line growth inhibition [PI3K];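 also: spheroids exposed to agents for seven days before reading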;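 as to viability, T/C: percent of vehicle control luminescence with DMSO treated spheroids as 100%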
Conditions: second compound 0.316 µM; first compound 1 µM; stronger effect = lower value

| COMPOUND | OBSERVATION TYPE | RESULT |
| --- | --- | --- |
| CC1(C)CCC(CN2CCN(c3ccc(C(=O)NS(=O)(=O)c4ccc(NCC5CCOCC5)c([N+](=O)[O-])c4)c(Oc4cnc5[nH]ccc5c4)c3)CC2)=C(c2ccc(Cl)cc2)C1 + Cc1nc(NC(=O)N2CCCC2C(N)=O)sc1-c1ccnc(C(C)(C)C(F)(F)F)c1 | viability, T/C | 79.6% |
| CCN1CCN(Cc2ccc(Nc3ncc(F)c(-c4cc(F)c5nc(C)n(C(C)C)c5c4)n3)nc2)CC1 + CC(Nc1ccc2c(c1)OCCn1cc(N3C(=O)OCC3C(F)F)nc1-2)C(N)=O | viability, T/C | 43.5% |
| CCCS(=O)(=O)Nc1ccc(F)c(C(=O)c2c[nH]c3ncc(-c4ccc(Cl)cc4)cc23)c1F + Cc1nc(NC(=O)N2CCCC2C(N)=O)sc1-c1ccnc(C(C)(C)C(F)(F)F)c1 | viability, T/C | 67.2% |
| CC(C)NCC(C(=O)N1CCN(c2ncnc3c2C(C)CC3O)CC1)c1ccc(Cl)cc1 (stereo not given) + CC(Nc1ncnc2nc[nH]c12)c1cc2cccc(Cl)c2c(=O)n1-c1ccccc1 | viability, T/C | 77.9% |

Proceeding to the next compound to report its viability, T/C.
Hello, I am looking for reported viability, T/C with MDA-MB-231 multicell spheroids, viability for CNC(=O)c1ccc(N2C(=S)N(c3ccc(C#N)c(C(F)(F)F)c3)C(=O)C2(C)C)cc1F + COc1c(OCCCN2CCOCC2)ccc2c3n(c(=NC(=O)c4cnc(N)nc4)nc12)CCN3 . Could you help?
34.6%
